# System: E. coli growth, OD530, overnight, 37 C
# assay: E. coli growth inhibition, SAR follow-up, DnaK modulator project, MIC, 37 and 42 C (AID 1503)
Active and inactive are the calls of the source.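 Rule for the calls: active = compounds whose lowest dose cutting E. coli growth over twofold at 37 C is below a set limit; inactive = the rest.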
Please answer using one outcome listed in YES (active), NO (inactive)

| compound | category |
| --- | --- |
| O=C(NCc1ccccc1Br)c1cccs1 | NO |

Query block: Hey, what did the test say about Cc1ccc(C(=O)NCc2ccc(Cl)cc2)o1 ?
Result block: NO

Query block: # fetch the recorded call for O=C(Nc1ccc2[nH]ccc2c1)c1cccs1 here
Result block: YES

Query block: Test call for this compound, please: O=C(NCc1ccccc1F)c1cccs1
Result block: NO

Query block: Outcome logged for Cc1ccc(C(=O)NCc2ccc(F)cc2)o1 in this assay:
Result block: NO

Query block: What was the test verdict on Nc1ccc2c(ccn2C(=O)c2cccs2)c1 ?
Result block: NO

Query block: What outcome does the record of this test show for Cc1ccc(CNC(=O)c2ccc([N+](=O)[O-])o2)cc1 ?
Result block: YES

Query block: For CC(Cc1ccc(F)cc1)NC(=O)c1cccs1 (stereo not drawn) , what call appears in the results of this test?
Result block: NO
